Provide the recorded EC50 for the entries that follow.
system-under-test: dOR35a (Drosophila melanogaster)
Construct: pIB-DmOr35a transiently expressed in Sf9 cells
Sequence (Q9V3Q2 whole entry): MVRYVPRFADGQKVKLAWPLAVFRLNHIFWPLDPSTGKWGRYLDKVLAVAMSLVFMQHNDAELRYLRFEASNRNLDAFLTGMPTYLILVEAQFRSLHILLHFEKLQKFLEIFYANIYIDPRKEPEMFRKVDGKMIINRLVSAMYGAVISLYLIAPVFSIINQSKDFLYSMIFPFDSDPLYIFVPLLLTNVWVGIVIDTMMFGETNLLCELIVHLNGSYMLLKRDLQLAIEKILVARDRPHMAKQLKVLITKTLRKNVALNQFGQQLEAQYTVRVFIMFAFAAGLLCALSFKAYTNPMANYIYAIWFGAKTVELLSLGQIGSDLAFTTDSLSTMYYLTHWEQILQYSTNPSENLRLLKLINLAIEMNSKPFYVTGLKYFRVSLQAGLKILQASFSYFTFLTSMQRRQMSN
method-summary: Fluo4 calcium imaging of receptor transiently expressed in Sf9 cells, concentration-response
I only need the number, in µM, no unit after it.

CCCCCCCCO yielded EC50 of 0.0227

C=CC(O)CCCCC (centres unmarked) yielded EC50 of 3.46
